# study_system: DNA-dependent protein kinase catalytic subunit (Homo sapiens)
# Sequence (P78527 whole entry): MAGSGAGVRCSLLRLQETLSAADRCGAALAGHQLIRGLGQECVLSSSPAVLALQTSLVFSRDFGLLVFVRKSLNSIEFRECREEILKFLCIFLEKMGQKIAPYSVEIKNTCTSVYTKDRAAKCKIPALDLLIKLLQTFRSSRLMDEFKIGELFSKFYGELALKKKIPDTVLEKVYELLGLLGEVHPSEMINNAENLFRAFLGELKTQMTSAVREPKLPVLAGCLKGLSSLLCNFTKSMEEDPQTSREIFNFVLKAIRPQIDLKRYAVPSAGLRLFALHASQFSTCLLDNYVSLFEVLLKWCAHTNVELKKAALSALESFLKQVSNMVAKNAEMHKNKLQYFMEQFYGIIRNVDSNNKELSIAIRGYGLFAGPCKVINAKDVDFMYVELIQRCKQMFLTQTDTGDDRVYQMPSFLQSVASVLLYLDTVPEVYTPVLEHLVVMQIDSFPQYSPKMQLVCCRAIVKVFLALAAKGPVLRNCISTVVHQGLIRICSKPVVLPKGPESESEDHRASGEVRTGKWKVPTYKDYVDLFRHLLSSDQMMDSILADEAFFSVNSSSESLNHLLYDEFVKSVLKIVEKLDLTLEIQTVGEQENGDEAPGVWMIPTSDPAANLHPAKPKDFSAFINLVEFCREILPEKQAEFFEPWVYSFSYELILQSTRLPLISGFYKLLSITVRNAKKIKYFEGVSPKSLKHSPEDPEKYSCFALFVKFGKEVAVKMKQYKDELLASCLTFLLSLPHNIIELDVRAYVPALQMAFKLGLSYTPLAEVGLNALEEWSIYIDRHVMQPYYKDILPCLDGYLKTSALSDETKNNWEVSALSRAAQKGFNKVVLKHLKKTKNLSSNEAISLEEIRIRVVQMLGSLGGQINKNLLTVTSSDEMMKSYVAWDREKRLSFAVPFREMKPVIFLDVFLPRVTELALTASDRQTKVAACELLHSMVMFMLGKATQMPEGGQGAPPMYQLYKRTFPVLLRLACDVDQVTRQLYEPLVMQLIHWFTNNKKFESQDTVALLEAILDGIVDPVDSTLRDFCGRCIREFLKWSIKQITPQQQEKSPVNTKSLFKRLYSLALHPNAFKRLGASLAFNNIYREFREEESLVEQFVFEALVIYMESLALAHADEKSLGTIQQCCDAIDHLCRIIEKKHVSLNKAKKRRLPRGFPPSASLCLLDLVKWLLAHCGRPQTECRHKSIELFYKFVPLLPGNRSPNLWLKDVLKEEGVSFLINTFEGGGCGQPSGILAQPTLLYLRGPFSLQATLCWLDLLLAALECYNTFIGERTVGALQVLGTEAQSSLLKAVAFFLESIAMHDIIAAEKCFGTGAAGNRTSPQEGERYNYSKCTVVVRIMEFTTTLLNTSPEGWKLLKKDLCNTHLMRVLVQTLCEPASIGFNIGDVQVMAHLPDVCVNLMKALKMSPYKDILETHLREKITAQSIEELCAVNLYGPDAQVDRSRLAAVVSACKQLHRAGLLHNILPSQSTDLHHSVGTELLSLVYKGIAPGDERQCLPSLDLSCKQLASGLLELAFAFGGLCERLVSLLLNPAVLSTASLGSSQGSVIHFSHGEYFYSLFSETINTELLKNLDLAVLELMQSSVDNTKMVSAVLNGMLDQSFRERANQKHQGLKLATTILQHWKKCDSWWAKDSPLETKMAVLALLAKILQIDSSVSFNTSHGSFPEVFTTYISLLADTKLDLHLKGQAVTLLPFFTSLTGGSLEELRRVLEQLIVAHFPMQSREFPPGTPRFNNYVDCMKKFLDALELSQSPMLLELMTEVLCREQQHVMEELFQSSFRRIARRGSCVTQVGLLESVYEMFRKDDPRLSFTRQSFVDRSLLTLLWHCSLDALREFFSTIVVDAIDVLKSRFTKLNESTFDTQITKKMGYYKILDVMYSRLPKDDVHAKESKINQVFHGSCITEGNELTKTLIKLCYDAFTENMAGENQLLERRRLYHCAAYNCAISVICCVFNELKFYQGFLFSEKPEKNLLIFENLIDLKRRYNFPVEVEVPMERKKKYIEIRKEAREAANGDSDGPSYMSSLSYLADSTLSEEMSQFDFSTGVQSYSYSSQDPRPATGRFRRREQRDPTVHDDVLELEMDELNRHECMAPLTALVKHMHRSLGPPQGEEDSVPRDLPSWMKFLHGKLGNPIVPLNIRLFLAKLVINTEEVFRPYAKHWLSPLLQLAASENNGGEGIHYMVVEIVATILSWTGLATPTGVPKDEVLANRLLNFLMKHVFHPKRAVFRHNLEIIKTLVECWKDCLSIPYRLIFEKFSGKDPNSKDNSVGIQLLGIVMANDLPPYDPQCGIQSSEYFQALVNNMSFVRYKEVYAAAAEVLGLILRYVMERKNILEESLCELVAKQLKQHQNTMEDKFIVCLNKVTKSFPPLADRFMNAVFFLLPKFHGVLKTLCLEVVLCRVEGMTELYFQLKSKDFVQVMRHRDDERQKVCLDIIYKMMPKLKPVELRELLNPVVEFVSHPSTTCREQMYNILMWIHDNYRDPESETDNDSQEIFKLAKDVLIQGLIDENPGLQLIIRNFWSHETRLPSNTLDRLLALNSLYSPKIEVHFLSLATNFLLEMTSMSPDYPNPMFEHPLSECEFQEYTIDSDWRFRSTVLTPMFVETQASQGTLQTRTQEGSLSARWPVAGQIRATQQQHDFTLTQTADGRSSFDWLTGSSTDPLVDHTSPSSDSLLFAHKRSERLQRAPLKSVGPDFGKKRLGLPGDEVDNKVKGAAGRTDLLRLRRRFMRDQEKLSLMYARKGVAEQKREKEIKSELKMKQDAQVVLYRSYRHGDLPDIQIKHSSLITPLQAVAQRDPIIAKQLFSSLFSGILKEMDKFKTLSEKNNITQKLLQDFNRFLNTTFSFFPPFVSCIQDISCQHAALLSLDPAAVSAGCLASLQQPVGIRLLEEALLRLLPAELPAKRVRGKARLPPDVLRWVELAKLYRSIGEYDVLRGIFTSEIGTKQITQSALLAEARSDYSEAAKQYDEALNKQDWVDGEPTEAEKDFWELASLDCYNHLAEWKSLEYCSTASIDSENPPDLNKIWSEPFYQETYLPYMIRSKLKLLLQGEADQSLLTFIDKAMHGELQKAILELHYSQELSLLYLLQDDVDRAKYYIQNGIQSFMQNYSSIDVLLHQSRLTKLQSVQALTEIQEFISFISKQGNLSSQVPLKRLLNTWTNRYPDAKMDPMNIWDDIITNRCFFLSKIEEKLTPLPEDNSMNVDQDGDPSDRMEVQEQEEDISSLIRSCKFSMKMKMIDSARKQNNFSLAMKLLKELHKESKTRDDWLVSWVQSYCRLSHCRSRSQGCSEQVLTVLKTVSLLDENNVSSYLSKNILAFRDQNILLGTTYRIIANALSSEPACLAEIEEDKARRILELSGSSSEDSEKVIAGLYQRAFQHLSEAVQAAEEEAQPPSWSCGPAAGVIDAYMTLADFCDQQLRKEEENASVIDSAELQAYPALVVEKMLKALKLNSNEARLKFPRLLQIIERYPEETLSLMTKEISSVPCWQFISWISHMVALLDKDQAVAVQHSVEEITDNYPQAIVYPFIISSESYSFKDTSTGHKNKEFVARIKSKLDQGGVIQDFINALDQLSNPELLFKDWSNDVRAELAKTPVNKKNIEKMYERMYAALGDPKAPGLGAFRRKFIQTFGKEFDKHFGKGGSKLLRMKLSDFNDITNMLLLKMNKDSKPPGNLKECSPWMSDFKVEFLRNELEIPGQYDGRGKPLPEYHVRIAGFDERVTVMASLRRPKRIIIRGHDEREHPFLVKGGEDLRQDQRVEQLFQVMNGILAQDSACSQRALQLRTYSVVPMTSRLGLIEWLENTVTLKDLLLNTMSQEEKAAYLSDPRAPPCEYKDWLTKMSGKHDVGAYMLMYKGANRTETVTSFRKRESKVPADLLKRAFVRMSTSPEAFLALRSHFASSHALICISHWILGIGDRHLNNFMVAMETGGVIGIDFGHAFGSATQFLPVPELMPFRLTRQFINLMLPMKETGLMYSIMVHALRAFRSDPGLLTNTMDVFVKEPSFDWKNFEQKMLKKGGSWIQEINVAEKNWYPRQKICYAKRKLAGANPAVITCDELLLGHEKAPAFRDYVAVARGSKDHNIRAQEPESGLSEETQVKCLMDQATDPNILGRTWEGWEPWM
# experiment_notes: Biochemical Assay: The kinase assay was carried out in streptavidin-coated […] microtitre flashplates. […] The reaction was stopped using 50 ul/well of 200 mM EDTA. After incubation for a further 30 min at room temperature, the liquid was removed. Each well was washed three times with 100 ul of 0.9% saline solution. A nonspecific reaction (blank value) was determined using 10 uM of an innate kinase inhibitor. The radioactivity measurement was carried out using a TopCount. IC50 values were calculated in RS1.
pIC50: −log10 of the molar value.
readout_kind: pIC50

Sure, the documented pIC50 for CCNCc1csc(C(O)c2cc(-c3ncnc4cc(N5CCOCC5)ccc34)c(F)cc2Cl)n1 (stereo unspecified) is 7.52 to 8.15
